B1: Twister Ribozyme (parent)
chain: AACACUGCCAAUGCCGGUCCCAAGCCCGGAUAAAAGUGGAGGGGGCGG

# Variants of: B1
# ASSAY_PROTOCOL: self-cleavage, relative activity (ratio to wild type); higher = more cleavage; co-transcriptional
Respond with Y for self-cleavage values of 0.3 and above, N for values below.

Would you say G16U U37G shows self-cleavage at minimum 0.3? Y

Would you say G28A G41A shows self-cleavage at minimum 0.3? Y

Would you say C5G A35G shows self-cleavage at minimum 0.3? Y

Would you say U12G A40U shows self-cleavage at minimum 0.3? N

Would you say A2G G43C shows self-cleavage at minimum 0.3? N

Would you say G36A G48C shows self-cleavage at minimum 0.3? Y

Would you say C14U G24U shows self-cleavage at minimum 0.3? N

Would you say A11U U31G shows self-cleavage at minimum 0.3? Y

Would you say C14G C25G shows self-cleavage at minimum 0.3? N

Would you say A32U G41A shows self-cleavage at minimum 0.3? Y

Would you say G13U C20U shows self-cleavage at minimum 0.3? N

Would you say C3U G29A shows self-cleavage at minimum 0.3? Y

Would you say A2G A35U shows self-cleavage at minimum 0.3? N

Would you say C27G U37C shows self-cleavage at minimum 0.3? N

Would you say C21A A23U shows self-cleavage at minimum 0.3? N

Would you say G17A A32G shows self-cleavage at minimum 0.3? Y

Would you say A1C C21A shows self-cleavage at minimum 0.3? N

Would you say C5U C46A shows self-cleavage at minimum 0.3? Y

Would you say C25G C26A shows self-cleavage at minimum 0.3? N

Would you say C14G U18G shows self-cleavage at minimum 0.3? N

Would you say C14A C19U shows self-cleavage at minimum 0.3? Y

Would you say G39C G44C shows self-cleavage at minimum 0.3? N

Would you say C9G A40U shows self-cleavage at minimum 0.3? N

Would you say A11C G44C shows self-cleavage at minimum 0.3? Y

Would you say C20U G42A shows self-cleavage at minimum 0.3? Y

Would you say A30U U31G shows self-cleavage at minimum 0.3? Y

Would you say A23C A40C shows self-cleavage at minimum 0.3? N

Would you say C5U A33G shows self-cleavage at minimum 0.3? Y

Would you say C19A A40C shows self-cleavage at minimum 0.3? N

Would you say A2U U18G shows self-cleavage at minimum 0.3? N
